This collection of values is drawn from paper PMC8617681.

test: 8 h pharmacokinetic study in wild-type, Cyp3a-/- and Cyp3aXAV mice; settings: female, FVB, Cyp3a-/-, mouse, in vivo, po, 10 mg/kg
Property measured: Cmax (ng/mL)
Quick note: give the figure in ng/mL, leave out the unit.

// query I'd like to know its Cmax. The molecule in question is COc1ccc(CN2C3CC2CN(c2ccc(-c4cc(OCC(C)(C)O)cn5ncc(C#N)c45)cn2)C3)cn1 [selpercatinib]
// result 12300

* * *

experiment: 4 h main pharmacokinetic experiment in wild-type, Abcb1a/1b-/-, Abcg2-/- and Abcb1a/1b;Abcg2-/- mice; assay type: in vivo; details: male, FVB, mouse, small intestine, po, 10 mg/kg, male wild-type mice, 10 mg/kg oral, 4 h main experiment; read-out: CSI (small intestine tissue concentration)
Property measured: concentration at 4 h (ng/g)
A number alone suffices; assume ng/g.

// query Requested read-out: concentration at 4 h. Entry: COc1ccc(CN2C3CC2CN(c2ccc(-c4cc(OCC(C)(C)O)cn5ncc(C#N)c45)cn2)C3)cn1 [selpercatinib]
// result 21600

* * *

experiment: 4 h pharmacokinetic pilot study in wild-type, Abcb1a/1b;Abcg2-/- and Slco1a/1b-/- mice; format: in vivo; details: male, FVB (Abcb1a/1b;Abcg2-/-), mouse, in vivo, po, 10 mg/kg, Cliver
Property measured: concentration at 4 h (ng/g)
// return numeric value only (unit: ng/g, not printed)

// query What value of concentration at 4 h has been recorded for this entry: COc1ccc(CN2C3CC2CN(c2ccc(-c4cc(OCC(C)(C)O)cn5ncc(C#N)c45)cn2)C3)cn1
// result 19100

* * *

test: 4 h pharmacokinetic pilot study in wild-type, Abcb1a/1b;Abcg2-/- and Slco1a/1b-/- mice; type: in vivo; settings: male, FVB background, Abcb1a/1b;Abcg2-/-, mouse, in vivo, po, 10 mg/kg
Property measured: AUC(0-t) (µg·h/mL)
Entry rule: numbers only, all in µg·h/mL.

// query I would be grateful if you could share the reported AUC(0-t) for COc1ccc(CN2C3CC2CN(c2ccc(-c4cc(OCC(C)(C)O)cn5ncc(C#N)c45)cn2)C3)cn1 [selpercatinib] .
// result 30.2

* * *

experiment: 2 h pharmacokinetic study with or without elacridar in wild-type and Abcb1a/1b;Abcg2-/- mice; format: in vivo; conditions: male, Abcb1a/1b;Abcg2-/- (>99% FVB genetic background), mouse, plasma, po, 10 mg/kg, male Abcb1a/1b;Abcg2-/- mice, vehicle, 10 mg/kg oral, 2 h; read-out: AUC0–2h
Property measured: AUC(0-t) (ng·h/mL)
Lab book: enter the figure in ng·h/mL, no units written.

// query Find the recorded AUC(0-t) belonging to COc1ccc(CN2C3CC2CN(c2ccc(-c4cc(OCC(C)(C)O)cn5ncc(C#N)c45)cn2)C3)cn1 and report it.
// result 15100

* * *

assay: 2 h pharmacokinetic study with or without elacridar in wild-type and Abcb1a/1b;Abcg2-/- mice; format: in vivo; conditions: FVB, mouse, testis; male wild-type mice, elacridar 50 mg/kg oral 2 h prior, 10 mg/kg oral, 2 h; read-out: Ctestis
Property measured: concentration at 2 h (ng/g)
Output spec: scalar in ng/g, unitless text.

// query Query: concentration at 2 h; subject: COc1ccc(CN2C3CC2CN(c2ccc(-c4cc(OCC(C)(C)O)cn5ncc(C#N)c45)cn2)C3)cn1 [selpercatinib]
// result 5710

* * *

assay: 4 h main pharmacokinetic experiment in wild-type, Abcb1a/1b-/-, Abcg2-/- and Abcb1a/1b;Abcg2-/- mice; type: in vivo; conditions: male, FVB, mouse, plasma, po, 10 mg/kg, male Abcg2-/- mice, 10 mg/kg oral, 4 h main experiment; read-out: AUC0–4h
Property measured: AUC(0-t) (ng·h/mL)
Answer format: numeric, ng·h/mL implied, no suffix.

// query Given COc1ccc(CN2C3CC2CN(c2ccc(-c4cc(OCC(C)(C)O)cn5ncc(C#N)c45)cn2)C3)cn1 [selpercatinib] , state its recorded AUC(0-t).
// result 39100

* * *

assay: 8 h pharmacokinetic study in wild-type, Cyp3a-/- and Cyp3aXAV mice; conditions: female, FVB, Cyp3a-/-, mouse, in vivo, po, 10 mg/kg
Property measured: AUC(0-t)
Provide a numeric answer, followed by its unit.

// query Which value of AUC(0-t) has been reported for COc1ccc(CN2C3CC2CN(c2ccc(-c4cc(OCC(C)(C)O)cn5ncc(C#N)c45)cn2)C3)cn1 [selpercatinib] in the records?
// result 72200 ng·h/mL

* * *

test: 2 h pharmacokinetic study with or without elacridar in wild-type and Abcb1a/1b;Abcg2-/- mice; format: in vivo; settings: male, wild-type (>99% FVB genetic background), mouse, plasma, po, 10 mg/kg, male wild-type mice, elacridar 50 mg/kg oral 2 h prior, 10 mg/kg oral, 2 h
Property measured: Cmax
Please answer using the number first and the unit second.

// query Given COc1ccc(CN2C3CC2CN(c2ccc(-c4cc(OCC(C)(C)O)cn5ncc(C#N)c45)cn2)C3)cn1 , state its recorded Cmax.
// result 7470 ng/mL

* * *

test: 4 h pharmacokinetic pilot study in wild-type, Abcb1a/1b;Abcg2-/- and Slco1a/1b-/- mice; type: in vivo; settings: male, FVB (wild-type), mouse, in vivo, po, 10 mg/kg, Cliver
Property measured: concentration at 4 h (ng/g)
Use ng/g as the unit, but write only the number.

// query Which concentration at 4 h value is on record for COc1ccc(CN2C3CC2CN(c2ccc(-c4cc(OCC(C)(C)O)cn5ncc(C#N)c45)cn2)C3)cn1 ?
// result 17600

* * *

assay: 4 h main pharmacokinetic experiment in wild-type, Abcb1a/1b-/-, Abcg2-/- and Abcb1a/1b;Abcg2-/- mice; format: in vivo; conditions: male, FVB, mouse, small intestine contents, po, 10 mg/kg, male Abcb1a/1b-/- mice, 10 mg/kg oral, 4 h main experiment; read-out: CSIC (small intestine contents concentration)
Property measured: concentration at 4 h (ng/g)
Answer format: numeric, ng/g implied, no suffix.

// query # concentration at 4 h lookup, item COc1ccc(CN2C3CC2CN(c2ccc(-c4cc(OCC(C)(C)O)cn5ncc(C#N)c45)cn2)C3)cn1 [selpercatinib]
// result 69400

* * *

experiment: 2 h pharmacokinetic study with or without elacridar in wild-type and Abcb1a/1b;Abcg2-/- mice; type: in vivo; details: FVB, mouse, small intestine tissue together with contents; male Abcb1a/1b;Abcg2-/- mice, elacridar 50 mg/kg oral 2 h prior, 10 mg/kg oral, 2 h; read-out: CSI + SIC (small intestine tissue together with contents concentration)
Property measured: concentration at 2 h (ng/g)
// note: answer is a bare numeric in ng/g

// query Which measured concentration at 2 h value corresponds to COc1ccc(CN2C3CC2CN(c2ccc(-c4cc(OCC(C)(C)O)cn5ncc(C#N)c45)cn2)C3)cn1 ?
// result 21200

* * *

test: 4 h main pharmacokinetic experiment in wild-type, Abcb1a/1b-/-, Abcg2-/- and Abcb1a/1b;Abcg2-/- mice; format: in vivo; settings: male, FVB (Abcb1a/1b-/-), mouse, brain, po, 10 mg/kg, male Abcb1a/1b-/- mice, 10 mg/kg oral, 4 h main experiment; read-out: Cbrain
Property measured: concentration at 4 h (ng/g)
Write down the numeric answer in ng/g and omit the unit.

// query For the compound COc1ccc(CN2C3CC2CN(c2ccc(-c4cc(OCC(C)(C)O)cn5ncc(C#N)c45)cn2)C3)cn1 , what concentration at 4 h is on record?
// result 2000

* * *

test: 4 h pharmacokinetic pilot study in wild-type, Abcb1a/1b;Abcg2-/- and Slco1a/1b-/- mice; format: in vivo; conditions: male, FVB background, wild-type, mouse, in vivo, po, 10 mg/kg
Property measured: AUC(0-t) (µg·h/mL)
Reply with just the number (in µg·h/mL).

// query What AUC(0-t) value was documented for this compound, COc1ccc(CN2C3CC2CN(c2ccc(-c4cc(OCC(C)(C)O)cn5ncc(C#N)c45)cn2)C3)cn1 ?
// result 26.6

* * *

assay: 4 h main pharmacokinetic experiment in wild-type, Abcb1a/1b-/-, Abcg2-/- and Abcb1a/1b;Abcg2-/- mice; format: in vivo; details: FVB (Abcg2-/-), mouse, plasma; male Abcg2-/- mice, 10 mg/kg oral, 4 h main experiment
Property measured: Cmax (ng/mL)
Please state the figure in ng/mL; there is no need to write the unit.

// query What does the data say about its Cmax? Entry: COc1ccc(CN2C3CC2CN(c2ccc(-c4cc(OCC(C)(C)O)cn5ncc(C#N)c45)cn2)C3)cn1 [selpercatinib]
// result 11400

* * *

experiment: 2 h pharmacokinetic study with or without elacridar in wild-type and Abcb1a/1b;Abcg2-/- mice; type: in vivo; conditions: male, wild-type (>99% FVB genetic background), mouse, plasma, po, 10 mg/kg, male wild-type mice, vehicle, 10 mg/kg oral, 2 h
Property measured: Tmax (min)
Reply numerically in min, unit not repeated.

// query # query: Tmax of entry COc1ccc(CN2C3CC2CN(c2ccc(-c4cc(OCC(C)(C)O)cn5ncc(C#N)c45)cn2)C3)cn1 [selpercatinib]
// result 45
